Measured values drawn from patent US8703424B2 for this set.

The following compounds are listed with their measured % Non (PLS-DA class probability non-teratogen) values.
# System: WA09 human embryonic stem (hES) cells
# assay.name: PLS-DA prediction of teratogenicity from secretome of treated hES cells (Example 9)
# condition.label: DevTox pharmaceutical, high dose (H = 10x circulating dose)
Note: the reply should be a number with no unit written.

Cn1c(=O)c2c(ncn2C)n(C)c1=O; 0.53
Cc1ncc(C[n+]2csc(CCO)c2C)c(N)n1; 0.78

Okay, next one:
State the recorded % Non (PLS-DA class probability non-teratogen) for this entry: "O=c1[nH]cc(F)c(=O)[nH]1"
0.32

* * *

# System: hESCs
# assay.name: Arginine / ADMA fold change ratio (integrated EICs) in dosed hESCs vs controls
# Method: All tested chemicals were purchased from Sigma-Aldrich (St. Louis, Mo.). Cells were dosed with drugs at a concentration equivalent to their published serum circulating therapeutic dosages. Dosing was performed on hESCs in 6-well plates in triplicate, i.e. three wells per plate. […] On the first day of dosage, the determined concentration of drug was dissolved in mTeSR1, and then 2.5 mL of this solution was added to each dosed well of hESCs. […]
observable: Arg/ADMA Prediction

O=c1[nH]cc(F)c(=O)[nH]1; Ter
CCCCc1oc2ccccc2c1C(=O)c1cc(I)c(OCCN(CC)CC)c(I)c1; Ter
CCCC(CCC)C(=O)O; Ter
